- assay name: viability loss of HPDE-C7K cells – cell-based, fluorescence, HTS, primary screen (AID 431);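 note: 0% = DMSO solvent wells and 100% = doxorubicin-treated wells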
- test parameters: HPDE-C7K KRASV12 cells, Alamar Blue viability, 48 h; at 10 µM; active compounds read high
The campaign covered roughly 63,000 compounds. About 1,100 (1.7%) were called active. The entries come from a sample that favours actives as a whole. Potency and affinity values are given separately.
cytotoxicity for assorted compounds
Give the value, in units of %, as a plain number.

Past entries and their recorded results:
[[record]]
compound = "NC(=O)C1CCN(C(=O)CN(c2cccc(C(F)(F)F)c2)S(=O)(=O)c2ccccc2)CC1"
endpoint_label = "cytotoxicity"
value = -1.4

[[record]]
compound = "Cc1nc(SCC(=O)O)c2oc3ccccc3c2n1"
endpoint_label = "cytotoxicity"
value = -10.8

[[record]]
compound = "Cc1nc(Nc2ccncc2)c2oc3ccccc3c2n1"
endpoint_label = "cytotoxicity"
value = -14.9


Query: Provide measured cytotoxicity value, entry: "Cc1cccc(N(CC(=O)NCc2ccccc2)C(=O)Cn2nnc(-c3ccc(C)o3)n2)c1"
Result: -14.9

Query: Provide measured cytotoxicity value, entry: "Cc1cc(-n2c(=O)c(C#N)cc3c(=O)n4ccccc4nc32)no1"
Result: -4.7
